The measurements presented in this section are drawn from PubChem BioAssay AID248.

- Test system: L1210 leukemia ip in BDF1 mice, survival T/C
- Method notes: NCI In Vivo Anticancer Drug Screen. Data for tumor model L1210 Leukemia (intraperitoneal) in B6D2F1 (BDF1) mice
- Condition set: endpoint: mean survival time; dose: 200.0 mg/kg/injection; schedule: Q04DX003 (ip); vehicle: Klucel (hydroxypropylcellulose) (HPC); higher = longer survival
- Experimental: The antitumor activity of compounds was measured in mice bearing transplantable tumors. Survival or tumor size were measured and the results are expressed as the measurement made in the treated group (T) divided by the measurement made in the vehicle treated control group (C). The tumor model used in this assay is L1210 Leukemia (intraperitoneal) in B6D2F1 (BDF1) mice
Inconclusive results and toxic doses are left out.
Measured parameter: T/C

{"Molecule": "COc1cccc(C(=O)C(CCC#N)c2ccccc2)c1 (configuration not stated)", "Test system": "L1210 leukemia ip in BDF1 mice, survival T/C", "T/C": "100 % of control"}
{"Molecule": "Nc1ccc2c(c1)S(=O)(=O)c1cc(O)ccc1O2", "Test system": "L1210 leukemia ip in BDF1 mice, survival T/C", "T/C": "97 % of control"}
{"Molecule": "Cc1ccc(C(=O)c2ccc(C)cc2)cc1", "Test system": "L1210 leukemia ip in BDF1 mice, survival T/C", "T/C": "89 % of control"}
{"Molecule": "CCCCCCCCCCCCCCCC[As](=O)(O)O", "Test system": "L1210 leukemia ip in BDF1 mice, survival T/C", "T/C": "93 % of control"}
{"Molecule": "Cc1cc2c(cc1C)NC(=O)CC(=O)N2", "Test system": "L1210 leukemia ip in BDF1 mice, survival T/C", "T/C": "100 % of control"}
{"Molecule": "Cc1ncc(C(O)c2ccc(Cl)cc2)n1Cc1ccccc1 (configuration not stated)", "Test system": "L1210 leukemia ip in BDF1 mice, survival T/C", "T/C": "94 % of control"}

Kindly consider the entry below.
I am curious: what T/C value has been reported for `COc1ccc(C(=O)NC(=S)Nc2ccc(I)cc2)cc1` ?
89 % of control

###

- System: L1210 leukemia ip in BDF1 mice, survival T/C
- Method notes: NCI In Vivo Anticancer Drug Screen. Data for tumor model L1210 Leukemia (intraperitoneal) in B6D2F1 (BDF1) mice
- Condition set: endpoint: mean survival time; dose: 100.0 mg/kg/injection; schedule: Q01DX001 (ip); vehicle: carboxymethylcellulose (CMC); higher = longer survival
Inconclusive results and toxic doses are left out.
Each entry below carries its reported T/C.

# example entries with known answers
{"Molecule": "O=C(NCCCCCCNC(=O)c1ccccc1)c1ccccc1", "T/C": "103 % of control"}
{"Molecule": "O=C(N/N=C/c1cc(Cl)ccc1O)C(O)(c1ccccc1)c1ccccc1", "T/C": "106 % of control"}
{"Molecule": "CCC(CC)(CCN)c1ccccc1", "T/C": "93 % of control"}
{"Molecule": "COc1ccc(-c2ccc([N+](=O)[O-])cc2[N+](=O)[O-])cc1", "T/C": "105 % of control"}
{"Molecule": "O=C1c2ccccc2-c2cc(S)ccc21", "T/C": "109 % of control"}

Report T/C for `CN(C)C=Nc1ccc(F)cc1` tested on L1210 leukemia ip in BDF1 mice, survival T/C.
102 % of control

Report T/C for `NC(=S)NN=C1CCCCCCCCCCC1` tested on L1210 leukemia ip in BDF1 mice, survival T/C.
98 % of control

Report T/C for `COc1cc(/C(C)=C2/SC(=S)NC2=O)cc(OC)c1OC` tested on L1210 leukemia ip in BDF1 mice, survival T/C.
92 % of control

###

- Tested on: L1210 leukemia ip in BDF1 mice, survival T/C
- Method notes: NCI In Vivo Anticancer Drug Screen. Data for tumor model L1210 Leukemia (intraperitoneal) in B6D2F1 (BDF1) mice
- Condition set: endpoint: mean survival time; dose: 400.0 mg/kg/injection; schedule: Q04DX003 (ip); vehicle: Klucel (hydroxypropylcellulose) (HPC); higher = longer survival
Inconclusive results and toxic doses are left out.
Measured parameter: T/C

# example entries with known answers
{"Compound": "O=S1C(c2ccccc2)CC1c1ccccc1 (stereo not drawn)", "Measured parameter": "T/C", "Assay result": "96 % of control"}
{"Compound": "CCCCN(CCCC)CP(=S)(CN(CCCC)CCCC)CN(CCCC)CCCC", "Measured parameter": "T/C", "Assay result": "107 % of control"}
{"Compound": "CCCCOc1ccc(OC(=O)Nc2cc(Cl)ccc2OC)cc1", "Measured parameter": "T/C", "Assay result": "97 % of control"}
{"Compound": "O=C(NC(CO)CCCO)c1ccc([N+](=O)[O-])cc1 (stereo not drawn)", "Measured parameter": "T/C", "Assay result": "96 % of control"}
{"Compound": "CCOC(=O)c1cnc(C)nc1Nc1ccccc1C", "Measured parameter": "T/C", "Assay result": "105 % of control"}
{"Compound": "CSCc1ccc(N)cc1", "Measured parameter": "T/C", "Assay result": "98 % of control"}
{"Compound": "O=c1[nH]cc[nH]1", "Measured parameter": "T/C", "Assay result": "104 % of control"}
{"Compound": "CCCCCC(=O)/C=C/CC(CCCCCCC#N)C(CC(OC)OC)[N+](=O)[O-] (stereo not drawn)", "Measured parameter": "T/C", "Assay result": "96 % of control"}
{"Compound": "Cc1ccc(S(=O)(=O)N(C)c2ccc(CC(=O)O)cc2)cc1", "Measured parameter": "T/C", "Assay result": "95 % of control"}
{"Compound": "Cc1ccccc1-n1c(C)cc(C(=O)O)c1C", "Measured parameter": "T/C", "Assay result": "88 % of control"}

I am curious: what T/C value has been reported for S=C1NC2CCCc3ccccc3C2O1 (stereo not drawn) ?
107 % of control

I am curious: what T/C value has been reported for `COc1ccc(S(=O)(=O)NC(=O)NC(=O)CC=C(C)C)cc1` ?
104 % of control

I am curious: what T/C value has been reported for `CNC(=S)NN=C(c1ccccc1)c1ccccc1` ?
96 % of control

###

- System: L1210 leukemia ip in BDF1 mice, survival T/C
- Method notes: NCI In Vivo Anticancer Drug Screen. Data for tumor model L1210 Leukemia (intraperitoneal) in B6D2F1 (BDF1) mice
- Condition set: endpoint: mean survival time; dose: 50.0 mg/kg/injection; schedule: Q04DX003 (ip); vehicle: Klucel (hydroxypropylcellulose) (HPC); higher = longer survival
- Method: The antitumor activity of compounds was measured in mice bearing transplantable tumors. Survival or tumor size were measured and the results are expressed as the measurement made in the treated group (T) divided by the measurement made in the vehicle treated control group (C). The tumor model used in this assay is L1210 Leukemia (intraperitoneal) in B6D2F1 (BDF1) mice
Inconclusive results and toxic doses are left out.
Each entry below carries its reported T/C.

{"Compound": "O=C(O)c1ccc2c(ccc3ccc4ccccc4c32)c1", "Assay result": "96 % of control"}
{"Compound": "c1ccc(-c2[nH]c3ccccc3c2-c2ccccc2)cc1", "Assay result": "90 % of control"}
{"Compound": "CC1=CC(=O)C2COc3c2c1cc1c(C)cc(=O)n(C)c31 (centres undefined)", "Assay result": "97 % of control"}
{"Compound": "COc1cc2c(cc1OC)C13CCN4CC5=CCOC6CC(=O)N2C1C6C5CC43 (centres undefined) (tested in a mixture with another compound)", "Assay result": "107 % of control"}

I am curious: what T/C value has been reported for `CNC(=O)Oc1ccccc1C(=O)NCO` ?
97 % of control

I am curious: what T/C value has been reported for `CC1(C)C/C(=N/O)C/C(=N\O)C1` ?
96 % of control

I am curious: what T/C value has been reported for `O=C(NC(=O)C(Cl)Cl)Nc1cccc2c1Cc1ccccc1-2` ?
105 % of control

I am curious: what T/C value has been reported for COc1ccccc1OCCOCCNC1C(C)CCCC1(C)C (centres undefined) ?
93 % of control

I am curious: what T/C value has been reported for `CC(C)n1cnc2nc[nH]c2c1=S` ?
102 % of control

I am curious: what T/C value has been reported for `c1ccc([As](C[As](c2ccccc2)c2ccccc2)c2ccccc2)cc1` ?
91 % of control

I am curious: what T/C value has been reported for CC(Cc1ccccc1)NC(=O)CCNNC(=O)c1ccncc1 (centres undefined) ?
98 % of control

I am curious: what T/C value has been reported for NC1CCC(CC23CC4CC(CC(C4)C2)C3)CC1 (centres undefined) ?
102 % of control

I am curious: what T/C value has been reported for CC1CCCCN1P(=[Se])(c1ccccc1)N1CCCCC1C (centres undefined) ?
103 % of control

I am curious: what T/C value has been reported for `O=C1C(=O)c2ccccc2-c2ccccc21` ?
98 % of control
